Biological target: MAP kinase-interacting serine/threonine-protein kinase 2 (Homo sapiens) (UniProt Q9HBH9)
Sequence (Q9HBH9 whole entry, looked up): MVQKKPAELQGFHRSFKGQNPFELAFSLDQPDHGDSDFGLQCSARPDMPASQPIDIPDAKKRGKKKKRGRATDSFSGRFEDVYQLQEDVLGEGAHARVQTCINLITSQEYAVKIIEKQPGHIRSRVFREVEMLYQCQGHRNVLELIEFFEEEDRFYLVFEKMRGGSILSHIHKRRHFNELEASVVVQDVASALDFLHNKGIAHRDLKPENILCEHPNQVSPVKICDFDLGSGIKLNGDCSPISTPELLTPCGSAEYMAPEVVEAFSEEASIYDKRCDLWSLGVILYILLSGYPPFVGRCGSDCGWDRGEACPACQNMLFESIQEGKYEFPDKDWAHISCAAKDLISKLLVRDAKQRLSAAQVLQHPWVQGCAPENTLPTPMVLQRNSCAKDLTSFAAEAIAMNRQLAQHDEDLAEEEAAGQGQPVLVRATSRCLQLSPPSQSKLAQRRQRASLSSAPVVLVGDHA
Settings: at 1 µM
Description: GSK_PKIS: MNK2 mean inhibition at 1 uM [Nanosyn]
Outcome Measure: inhibition (%)
Express your answer in %, writing the number without its unit.

The cases that follow already have their inhibition on record.
COc1cc(Nc2ncc3c(C)nc(-c4cccc(C(F)(F)F)c4)n3n2)cc(OC)c1OC 6
NCc1ccc(-n2c(-c3nonc3N)nc3cnccc32)cc1 10.1
FC(F)(F)c1cccc(Nc2nccc(-c3cnn4nc(-c5ccccc5)ccc34)n2)c1 4.37
O=C(Nc1n[nH]c2nc(-c3ccc(O)cc3)c(Br)cc12)C1CC1 35.1
NC(=O)c1cc(-c2ccc(F)cc2)cc(-c2ccncc2)c1N 3.34
Cc1nnc(-c2ccc(C)c(-c3ccc(C(=O)NCc4ccc(Cl)cc4)cc3)c2)o1 1.57
O=C(Nc1ccc(Oc2ccc3[nH]c(NC(=O)c4ccccc4)nc3c2)cc1)Nc1cc(C(F)(F)F)ccc1F 22.1
C[C@@H](Oc1cc(-n2cnc3ccc(OC4CCN(C)CC4)cc32)sc1C(N)=O)c1ccccc1Cl 21

Name the recorded inhibition for CCc1ccc(Oc2nccc(-c3c(-c4ccc(F)cc4)ncn3C3CCNCC3)n2)cc1 .
3.52

Consider the compound shown here: COc1cc2ncn(-c3cc(OCc4ccccc4C(F)(F)F)c(C(C)=O)s3)c2cc1OC What is its recorded inhibition?
4.93

What does the record list as inhibition for CN1CCN(CCCNc2nc3ccc(Oc4ccc(NC(=O)Nc5cc(C(F)(F)F)ccc5F)cc4)cc3[nH]2)CC1 ?
9.51

Report inhibition for CCS(=O)(=O)c1ccc(OC)c(Nc2ncc(-c3cccc(-c4ccccc4F)c3)o2)c1 please.
3.99

Need inhibition, item Cc1ccc(C(=O)NC2CCC2)cc1-c1ccc(C(=O)NCC2CC2)cc1
1.97

I have this compound here, O=C1Nc2ccccc2/C1=C/Nc1ccc(-n2cncn2)cc1 , and I need its recorded inhibition.
8.07

So what's the measured inhibition for this one? Cc1ccc(C(=O)NC(C)C)cc1-c1ccc(C(=O)NCC2CC2)cc1
1.12

I'd like to know its inhibition. The compound in question is CS(=O)(=O)CCNCc1ccc(-c2ccc3ncnc(Nc4ccc(OCc5ccccc5)c(Br)c4)c3c2)o1
7.73

###

// reported inhibition for each item listed
Target: Casein kinase II subunit alpha (Homo sapiens) (UniProt P68400);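 further: reported value is the mean CK2 inhibition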
Sequence (P68400 whole entry, looked up): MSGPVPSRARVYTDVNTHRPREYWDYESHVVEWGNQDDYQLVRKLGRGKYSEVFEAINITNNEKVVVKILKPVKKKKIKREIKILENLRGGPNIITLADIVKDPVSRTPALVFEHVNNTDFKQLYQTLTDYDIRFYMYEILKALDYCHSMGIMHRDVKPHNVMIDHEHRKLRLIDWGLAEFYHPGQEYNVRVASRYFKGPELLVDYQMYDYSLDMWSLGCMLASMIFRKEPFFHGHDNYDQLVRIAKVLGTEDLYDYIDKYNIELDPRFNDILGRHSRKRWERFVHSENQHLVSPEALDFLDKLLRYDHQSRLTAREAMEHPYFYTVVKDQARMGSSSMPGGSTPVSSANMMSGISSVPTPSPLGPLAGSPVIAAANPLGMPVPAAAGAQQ
Settings: at 1 µM
Number in %, nothing else.

Here is how some compounds turned out for inhibition.
Cc1ccc(C(=O)NC(C)C)cc1-c1ccc(C(=O)NCC2CC2)cc1 0.22
Fc1ccc(-c2ncn(C3CCNCC3)c2-c2ccnc(Oc3ccc(F)c(F)c3)n2)cc1 3.12
COC(=O)Nc1nc2ccc(Sc3ccc(NC(=O)Nc4cc(C(F)(F)F)ccc4F)cc3)cc2[nH]1 6.92
NS(=O)(=O)c1ccc(N/N=C2\C(=O)Nc3ccc(C(=O)NCCCn4ccnc4)cc32)cc1 21

Tell me the measured inhibition of COc1cc(Nc2ncc(-c3ccccc3)o2)cc(OC)c1OC , please.
4.02

Requested field: inhibition. Item: Clc1ccc(CNc2nccc(-c3cnn4ncccc34)n2)cc1
17.9

Consider the compound c1ccc(-c2n[nH]cc2-c2ccnc(-c3ccc(OCCN4CCOCC4)cc3)c2)nc1 and give its measured inhibition.
-4.72

# get_value(readout='inhibition', item= CCC(=O)Nc1ccc(C)c(-c2ccc(C(=O)NCC3CC3)cc2)c1 )
2.11

Dear colleague, I am looking for the recorded inhibition of the following compound: FC(F)(F)c1cccc(Nc2nccc(-c3cnn4nc(-c5ccccc5)ccc34)n2)c1
4.42

Form field: reported inhibition of Fc1ccc(-c2nc3n(c2-c2ccncc2)CCS3)cc1
-1.41

// returns reported inhibition for input COc1cc(C)c(N(C)C(=O)CN(C)C)cc1Nc1nc(Nc2cccc(F)c2C(N)=O)c2cc[nH]c2n1
4.3

Bench note: what inhibition did C[C@@H](Oc1cc(-n2cnc3ccc(OCC4CCN(C)CC4)cc32)sc1C(N)=O)c1ccccc1Cl show?
19.4

Look up inhibition: CCc1ccc(Oc2nccc(-c3c(-c4ccc(F)cc4)ncn3C3CCNCC3)n2)cc1
4.14

Could you tell me which inhibition is on file for O=C(Nc1n[nH]c2nc(-c3ccco3)ccc12)C1CC1 ?
-0.44

All figures here come from ChEMBL document CHEMBL1961873.
